B1: GA-binding protein alpha chain, residues 172 to 250; numbered along this chain, Q06546 (parent)
chain: GYRKEQERLGIPYDPIQWSTDQVLHWVVWVMKEFSMTDIDLTTLNISGRELCSLNQEDFFQRVPRGEILWSHLELLRKY

# Variants of: B1
# test description: abundance fitness (aPCA) (normalised: wild type 0, dead -1); higher = more abundant; growth selection in yeast, the domain comes from the species named
# conditions used: Homo sapiens
The following variants are listed with their measured abundance fitness values.

mutations | abundance fitness
E5P | -0.958
V27G | -0.037
T42H | -0.075
L41N | -0.258
W26F | -0.404
E50S | -0.291
L9Y | -0.133
V27N | -0.818
P64I | -0.554

Source: the Human Domainome abundance scans (Beltran et al. 2025)
